# systemUnderTest: T1, EsCas13d, nuclease-dead (Eubacterium siraeum, UniProt B0MS50, R295A;H300A;R849A;H854A)
# T1 sequence: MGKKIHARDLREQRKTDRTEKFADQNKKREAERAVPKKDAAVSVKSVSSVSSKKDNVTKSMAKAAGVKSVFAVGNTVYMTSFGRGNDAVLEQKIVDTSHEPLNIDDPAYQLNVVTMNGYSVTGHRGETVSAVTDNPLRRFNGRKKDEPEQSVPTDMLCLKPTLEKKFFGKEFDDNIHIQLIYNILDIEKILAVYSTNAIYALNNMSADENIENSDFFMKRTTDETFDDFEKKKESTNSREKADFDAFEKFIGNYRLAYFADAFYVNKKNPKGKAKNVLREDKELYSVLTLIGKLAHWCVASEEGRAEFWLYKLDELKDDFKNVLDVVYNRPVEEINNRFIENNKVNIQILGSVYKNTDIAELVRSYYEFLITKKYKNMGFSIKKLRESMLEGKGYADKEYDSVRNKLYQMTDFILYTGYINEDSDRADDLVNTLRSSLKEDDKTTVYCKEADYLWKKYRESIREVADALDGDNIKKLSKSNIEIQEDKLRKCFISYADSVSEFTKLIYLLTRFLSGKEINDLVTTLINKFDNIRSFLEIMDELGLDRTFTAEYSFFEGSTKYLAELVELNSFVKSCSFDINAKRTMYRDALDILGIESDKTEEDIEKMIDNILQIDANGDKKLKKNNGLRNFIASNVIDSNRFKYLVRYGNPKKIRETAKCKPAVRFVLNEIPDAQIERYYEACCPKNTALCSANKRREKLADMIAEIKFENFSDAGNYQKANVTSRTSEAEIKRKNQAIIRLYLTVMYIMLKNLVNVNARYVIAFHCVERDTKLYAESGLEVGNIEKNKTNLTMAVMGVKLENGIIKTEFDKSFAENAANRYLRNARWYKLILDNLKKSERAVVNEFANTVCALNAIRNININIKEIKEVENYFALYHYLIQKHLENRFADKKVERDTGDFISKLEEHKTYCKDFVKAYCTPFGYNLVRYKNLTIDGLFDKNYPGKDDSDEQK
# procedureSummary: crRNA (strand 1, pre-loaded); Mg2+; 40 mM Tris-HCl pH 7.5, 150 mM NaCl, 6 mM MgCl2, 1 mM DTT, 0.1% Tween-20, 0.2 mg/ml BSA; 25 C; 10 min per concentration, then washed
# conditionParameters: tags: His6-TwinStrep-SUMO cleaved; N-terminal SNAP kept (SNAP-Surface 488); label: 3' end held by stalled T7 RNA polymerase
readoutLabel: pKd
Remember the convention: pKd equals -log10 of concentration in molar.

>  <binder>
target 1 del3,del15 (mixed) RNA 1: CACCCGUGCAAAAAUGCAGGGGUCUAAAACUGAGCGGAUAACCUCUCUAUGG RNA 2: GGGAAUGGAUCCACAUCUACGAAUUCGUACCAUAGAAGGUUAUCCGCCACCGAGAUCGGAAGAGCACACGU

>  <pKd>
7.52

$$$$
>  <binder>
target 1 insA 3' of 6,insU 3' of 5 (mixed) RNA 1: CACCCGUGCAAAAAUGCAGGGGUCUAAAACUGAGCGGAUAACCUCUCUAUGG RNA 2: GGGAAUGGAUCCACAUCUACGAAUUCGUACCAUAGAGAGGUUAUCCAGUCUCACCGAGAUCGGAAGAGCACACGU

>  <pKd>
7.39

$$$$

Tell me pKd reported for target 1 MT 5'PFS GUG 3'PFS UUC (mixed) RNA 1: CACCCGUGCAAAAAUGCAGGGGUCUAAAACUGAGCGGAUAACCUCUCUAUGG RNA 2: GGGAAUGGAUCCACAUCUACGAAUUCGUGCCAUAGAGAGGUUAUCCGCUCAUUCAGAUCGGAAGAGCACACGU
7.94
